Origin of measurements: ChEMBL document CHEMBL1155936

Target: UniProt P09467
Sequence (P09467 whole entry): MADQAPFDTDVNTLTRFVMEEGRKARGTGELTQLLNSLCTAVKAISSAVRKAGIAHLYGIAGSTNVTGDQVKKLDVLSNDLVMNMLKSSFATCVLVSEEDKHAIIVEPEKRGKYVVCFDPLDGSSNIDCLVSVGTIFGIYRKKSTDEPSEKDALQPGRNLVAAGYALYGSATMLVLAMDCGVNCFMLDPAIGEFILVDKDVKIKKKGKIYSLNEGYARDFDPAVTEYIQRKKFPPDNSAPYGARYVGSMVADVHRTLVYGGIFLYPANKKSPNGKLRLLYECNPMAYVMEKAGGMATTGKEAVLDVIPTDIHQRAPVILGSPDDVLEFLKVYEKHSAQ
Assay: Inhibition of human liver fructose-1,6-bisphosphatase
Observed Property: IC50 (µM)
Give bare numbers, in µM.

INSERT INTO measurements (compound_smiles, assayed_target, observed_property, observed_value) VALUES
  ('Cc1cccc(S(=O)(=O)NC(=O)NCCSSCCNC(=O)NS(=O)(=O)c2cccc(C)c2)c1', 'UniProt P09467', 'IC50', 0.029);

Consider the following items and state reported IC50 for each.
1. CSCCNC(=O)NS(=O)(=O)c1cccc(Cl)c1
2. Cc1cccc(S(=O)(=O)NC(=O)NCc2ccc(CNC(=O)NS(=O)(=O)c3cccc(C)c3)cc2)c1
3. CCCCNC(=O)NS(=O)(=O)c1cccc(C)c1

### Response
1. 515
2. 0.003
3. 178

###

biological target: Fructose-1,6-bisphosphatase 1 (Homo sapiens); assay: Inhibition of human liver fructose-1,6-bisphosphatase in presence of fructose-2,6-bisphosphate
Consider the following compounds; for each one, report its pIC50.
One number for each entry, as −log10 of the molar value.

Consider the following items and state reported pIC50 for each.
1. Cc1cccc(S(=O)(=O)NC(=O)NCCC#CCCNC(=O)NS(=O)(=O)c2cccc(C)c2)c1
2. O=C(NCC/C=C/CCNC(=O)NS(=O)(=O)c1cccc(Cl)c1)NS(=O)(=O)c1cccc(Cl)c1
3. Cc1cccc(S(=O)(=O)NC(=O)NCCSCCNC(=O)NS(=O)(=O)c2cccc(C)c2)c1
4. CCCNC(=O)NS(=O)(=O)c1cccc(C)c1
5. Cc1cccc(S(=O)(=O)NC(=O)NCc2cccc(CNC(=O)NS(=O)(=O)c3cccc(C)c3)c2)c1
6. O=C(NCCCCCCCCNC(=O)NS(=O)(=O)c1cccc(Cl)c1)NS(=O)(=O)c1cccc(Cl)c1

### Response
1: 7.92; 2: 7.85; 3: 7.74; 4: 3.49; 5: 8.22; 6: 7.77

Consider the following items and state reported pIC50 for each.
1. Cc1cccc(S(=O)(=O)NC(=O)NCCCCCCCNC(=O)NS(=O)(=O)c2cccc(C)c2)c1
2. Cc1cccc(S(=O)(=O)NC(=O)NCC/C=C/CCNC(=O)NS(=O)(=O)c2cccc(C)c2)c1

### Response
[8.30, 7.55]

###

target: Fructose-1,6-bisphosphatase 1 (Homo sapiens, UniProt P09467); experiment: Inhibition of human liver fructose-1,6-bisphosphatase
Consider the following compounds; for each one, report its pIC50.
Numbers only, as −log10 of the molar value.

INSERT INTO measurements (compound_smiles, observed_value) VALUES
  ('O=C(NCc1ccc(CNC(=O)NS(=O)(=O)c2cccc(Cl)c2)cc1)NS(=O)(=O)c1cccc(Cl)c1', 8.22),
  ('CCCNC(=O)NS(=O)(=O)c1cccc(Cl)c1', 3.16),
  ('O=C(NCCCCCCCCNC(=O)NS(=O)(=O)c1cccc(Cl)c1)NS(=O)(=O)c1cccc(Cl)c1', 7.35),
  ('O=C(NCCCOCCCNC(=O)NS(=O)(=O)c1cccc(Cl)c1)NS(=O)(=O)c1cccc(Cl)c1', 6.90),
  ('O=C(NCCSSCCNC(=O)NS(=O)(=O)c1cccc(Cl)c1)NS(=O)(=O)c1cccc(Cl)c1', 7.26);

Consider the following items and state reported pIC50 for each.
1. Cc1cccc(S(=O)(=O)NC(=O)NCCC#CCCNC(=O)NS(=O)(=O)c2cccc(C)c2)c1
2. Cc1cccc(S(=O)(=O)NC(=O)NCCCCCCCCNC(=O)NS(=O)(=O)c2cccc(C)c2)c1
3. O=C(NCC/C=C/CCNC(=O)NS(=O)(=O)c1cccc(Cl)c1)NS(=O)(=O)c1cccc(Cl)c1
4. O=C(NCCCCCNC(=O)NS(=O)(=O)c1cccc(Cl)c1)NS(=O)(=O)c1cccc(Cl)c1
5. O=C(NCCCCNC(=O)NS(=O)(=O)c1cccc(Cl)c1)NS(=O)(=O)c1cccc(Cl)c1
6. Cc1cccc(S(=O)(=O)NC(=O)NCCCCCCNC(=O)NS(=O)(=O)c2cccc(C)c2)c1

### Response
1: 7.02; 2: 7.46; 3: 7.40; 4: 7.30; 5: 5.56; 6: 7.62

Consider the following items and state reported pIC50 for each.
1. Nc1ccc(S(=O)(=O)NC(=O)NCCS)cc1
2. Cc1cccc(S(=O)(=O)NC(=O)NCCOCCNC(=O)NS(=O)(=O)c2cccc(C)c2)c1
3. O=C(NCCCNCCCNC(=O)NS(=O)(=O)c1cccc(Cl)c1)NS(=O)(=O)c1cccc(Cl)c1
4. CCCCNC(=O)NS(=O)(=O)c1cccc(Cl)c1
5. Cc1cccc(S(=O)(=O)NC(=O)NCC/C=C/CCNC(=O)NS(=O)(=O)c2cccc(C)c2)c1
6. O=C(NC[C@H]1CC[C@H](CNC(=O)NS(=O)(=O)c2cccc(Cl)c2)CC1)NS(=O)(=O)c1cccc(Cl)c1

### Response
1. 5.80
2. 6.08
3. 4.36
4. 3.71
5. 7.17
6. 7.55

###

biological target: Fructose-1,6-bisphosphatase 1 (Homo sapiens, UniProt P09467); assay: Inhibition of human liver fructose-1,6-bisphosphatase in presence of fructose-2,6-bisphosphate
Observed Property: IC50 (nM)
Numbers only, in nM.

INSERT INTO assay_data (compound_smiles, assayed_target, measurement_unit, observed_value) VALUES
  ('O=C(NC[C@H]1CC[C@H](CNC(=O)NS(=O)(=O)c2cccc(Cl)c2)CC1)NS(=O)(=O)c1cccc(Cl)c1', 'Fructose-1,6-bisphosphatase 1 (Homo sapiens, UniProt P09467)', 'nM', 16);

Consider the following items and state reported IC50 for each.
1. Cc1cccc(S(=O)(=O)NC(=O)NCCCNC(=O)NS(=O)(=O)c2cccc(C)c2)c1
2. Cc1cccc(S(=O)(=O)NC(=O)NCCSSCCNC(=O)NS(=O)(=O)c2cccc(C)c2)c1
3. Cc1cccc(S(=O)(=O)NC(=O)NCc2ccc(CNC(=O)NS(=O)(=O)c3cccc(C)c3)cc2)c1
4. O=C(NCCCNCCCNC(=O)NS(=O)(=O)c1cccc(Cl)c1)NS(=O)(=O)c1cccc(Cl)c1

### Response
1: 38500; 2: 12; 3: 2; 4: 13700

###

experiment: Lipophilicity, Log D at pH 7.4; assay type: physicochemical; details: buffer
Observed Property: logD

INSERT INTO measurements (compound_smiles, observed_value) VALUES
  ('O=C(NCCCCCCNC(=O)NS(=O)(=O)c1cccc(Cl)c1)NS(=O)(=O)c1cccc(Cl)c1', -0.93);

### Prompt Which logD is reported for this compound? O=C(NCCCCCCCNC(=O)NS(=O)(=O)c1cccc(Cl)c1)NS(=O)(=O)c1cccc(Cl)c1
### Response -0.43

###

assay: Dissociation constant, pKa of the compound; assay type: physicochemical
Observed Property: pKa
One number for each entry.

INSERT INTO assay_data (compound_smiles, observed_property, observed_value) VALUES
  ('O=C(NCCCCCCNC(=O)NS(=O)(=O)c1cccc(Cl)c1)NS(=O)(=O)c1cccc(Cl)c1', 'pKa', 5.35);

### Prompt Which pKa is reported for this compound? O=C(NCCCCCCCNC(=O)NS(=O)(=O)c1cccc(Cl)c1)NS(=O)(=O)c1cccc(Cl)c1
### Response 5.12

###

Consider the following compounds; for each one, report its IC50.
target: Fructose-1,6-bisphosphatase 1 (Homo sapiens, UniProt P09467); experiment: Inhibition of human liver fructose-1,6-bisphosphatase
Answers are plain numbers, in nM.

INSERT INTO assay_data (compound_smiles, observed_property, observed_value) VALUES
  ('Cc1cccc(S(=O)(=O)NC(=O)NCCCCCNC(=O)NS(=O)(=O)c2cccc(C)c2)c1', 'IC50', 72),
  ('Cc1cccc(S(=O)(=O)NC(=O)NCc2cccc(CNC(=O)NS(=O)(=O)c3cccc(C)c3)c2)c1', 'IC50', 12),
  ('Cc1cccc(S(=O)(=O)NC(=O)NCCCCNC(=O)NS(=O)(=O)c2cccc(C)c2)c1', 'IC50', 3400),
  ('Cc1cccc(S(=O)(=O)NC(=O)NCCSCCNC(=O)NS(=O)(=O)c2cccc(C)c2)c1', 'IC50', 70),
  ('Cc1cccc(S(=O)(=O)NC(=O)NCCCCCCCNC(=O)NS(=O)(=O)c2cccc(C)c2)c1', 'IC50', 12);

### Prompt Which IC50 is reported for this compound? Cc1cccc(S(=O)(=O)NC(=O)NCCS)c1
### Response 20500
